Test system: 217524-143-R1-J4-PDC spheroids with HUVEC/MSC, viability
Assay: Anticancer human tumor 217524-143-R1-J4-PDC patient-derived pancreatic carcinoma cell line growth inhibition [CLK]
Settings: second compound 1 µM; first compound 3.16 µM; active compounds read low
Excerpt: A high-throughput screen of multi-cell type tumor spheroids was designed to identify active combinations of […] and targeted small molecules. Complex spheroids include a stromal component modeled by human endothelial cells (HUVEC) and fibroblasts modeled by human mesenchymal stem cells (MSCs). […] Compounds. […] If the clinical Cmax for an agent had not been determined, the highest concentration tested was 10 microM. […]
Define the label as criterion met when viability, T/C is strictly less than 20% and as criterion not met in all remaining cases.

Worked examples, 4 compounds total:
Input line: # TODO verify viability, T/C < 20% strictly for this compound: O=C(c1cc(Cc2n[nH]c(=O)c3ccccc23)ccc1F)N1CCN(C(=O)C2CC2)CC1 + CNC(=O)c1ccc(Nc2nc(OC3CCCC3)c3c(-c4ccc5nc(C)oc5c4)c[nH]c3n2)c(OC)c1
Output line: criterion not met

Input line: # TODO verify viability, T/C < 20% strictly for this compound: COC1C=CCC(C)C(C)S(=O)(=O)NC(=O)c2ccc3c(c2)N(CC2CCC21)CC1(CCCc2cc(Cl)ccc21)CO3 (stereo not given) + CN1CCN(c2cc(C(=O)Nc3cc4cc(-c5cnn(C)c5)ccc4cn3)ccn2)CC1
Output line: criterion met

Input line: # TODO verify viability, T/C < 20% strictly for this compound: CCCS(=O)(=O)Nc1ccc(F)c(C(=O)c2c[nH]c3ncc(-c4ccc(Cl)cc4)cc23)c1F + CNC(=O)c1ccc(Nc2nc(OC3CCCC3)c3c(-c4ccc5nc(C)oc5c4)c[nH]c3n2)c(OC)c1
Output line: criterion not met

Input line: # TODO verify viability, T/C < 20% strictly for this compound: CC(CO)NC(=O)c1cc(-c2ccc(Cl)cc2)nn(-c2cnn(C)c2)c1=O (stereo not given) + CNC(=O)c1ccc(Nc2nc(OC3CCCC3)c3c(-c4ccc5nc(C)oc5c4)c[nH]c3n2)c(OC)c1
Output line: criterion not met

Others:
Input line: # TODO verify viability, T/C < 20% strictly for this compound: C#Cc1c(F)ccc2cc(O)cc(-c3ncc4c(N5CC6CCC(C5)N6)nc(OCC56CCCN5CC(F)C6)nc4c3F)c12 (stereo not given) + CN1CCN(c2cc(C(=O)Nc3cc4cc(-c5cnn(C)c5)ccc4cn3)ccn2)CC1
Output line: criterion met

----------
system: 217524-143-R1-J4-PDC spheroids with HUVEC/MSC, viability; experiment: Anticancer human tumor 217524-143-R1-J4-PDC cell line growth inhibition [CLK]; settings: second compound 0.0316 µM; first compound 0.1 µM; active compounds read low;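 further: spheroids exposed to agents for seven days before reading; 100% = DMSO vehicle control viability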
viability, T/C by entry:

Would you please look over these solved cases?
Input line: Identify viability, T/C associated with the compound CC1(C)CCC(CN2CCN(c3ccc(C(=O)NS(=O)(=O)c4ccc(NCC5CCOCC5)c([N+](=O)[O-])c4)c(Oc4cnc5[nH]ccc5c4)c3)CC2)=C(c2ccc(Cl)cc2)C1 + CN1CCN(c2cc(C(=O)Nc3cc4cc(-c5cnn(C)c5)ccc4cn3)ccn2)CC1
Output line: 68.9%

Input line: Identify viability, T/C associated with the compound Nc1ccn(C2OC(CO)C(O)C2(F)F)c(=O)n1 (stereo not given) + CN1CCN(c2cc(C(=O)Nc3cc4cc(-c5cnn(C)c5)ccc4cn3)ccn2)CC1
Output line: 22.9%

Input line: Identify viability, T/C associated with the compound Nc1ccccc1NC(=O)c1ccc(CNC(=O)OCc2cccnc2)cc1 + CNC(=O)c1ccc(Nc2nc(OC3CCCC3)c3c(-c4ccc5nc(C)oc5c4)c[nH]c3n2)c(OC)c1
Output line: 99%

Input line: Identify viability, T/C associated with the compound C=CC(=O)N1CCN(c2nc(=O)n(-c3c(C)ccnc3C(C)C)c3nc(-c4c(O)cccc4F)c(F)cc23)C(C)C1 (stereo not given) + CN1CCN(c2cc(C(=O)Nc3cc4cc(-c5cnn(C)c5)ccc4cn3)ccn2)CC1
Output line: 71.5%

# ---- query compound ----
Input line: Identify viability, T/C associated with the compound COC1C=CCC(C)C(C)S(=O)(=O)NC(=O)c2ccc3c(c2)N(CC2CCC21)CC1(CCCc2cc(Cl)ccc21)CO3 (stereo not given) + CNC(=O)c1ccc(Nc2nc(OC3CCCC3)c3c(-c4ccc5nc(C)oc5c4)c[nH]c3n2)c(OC)c1
Output line: 91.3%
